# Subject of test: Tet(X6) (Proteus genomosp. 6, UniProt A0A6I7DAX3)
# Sequence (A0A6I7DAX3 entry or part of it): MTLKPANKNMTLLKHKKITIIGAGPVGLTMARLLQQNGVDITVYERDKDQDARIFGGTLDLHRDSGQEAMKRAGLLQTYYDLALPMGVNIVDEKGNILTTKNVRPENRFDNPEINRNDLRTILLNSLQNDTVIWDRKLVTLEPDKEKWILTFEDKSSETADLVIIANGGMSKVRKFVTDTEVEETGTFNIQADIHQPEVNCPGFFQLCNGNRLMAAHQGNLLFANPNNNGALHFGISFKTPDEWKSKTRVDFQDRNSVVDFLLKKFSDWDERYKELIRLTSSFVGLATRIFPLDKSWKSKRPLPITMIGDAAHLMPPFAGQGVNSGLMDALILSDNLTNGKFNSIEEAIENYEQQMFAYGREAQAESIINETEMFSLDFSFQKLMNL
# Procedure summary: Apparent Tet(X6) inhibitor IC50 (optical absorbance assay)
# Type: biochemical, Proteus genomospecies
# Cond: IC50, aTC inhibition of OMA degradation, Tet(X6); substrate OMA
Assay metric: IC50 (µM)
Report the figure in µM without appending any unit label.

Incoming: Requested field: IC50. Item: Cc1c2c(c(O)c3c(O)cccc13)C(=O)[C@]1(O)C(=O)C(C(N)=O)=C(O)[C@@H](N(C)C)[C@@H]1C2 [aTC, anhydrotetracycline]
Outgoing: 12

---

# Subject of test: Tet(X6) (Proteus genomosp. 6, UniProt A0A6I7DAX3)
# Cond: supplementary source data
Assay metric: Michaelis-menten nonlinear fit, best-fit Kcat
In your answer, state the number alone without any accompanying words.

smiles_str=CN(C)[C@@H]1C(O)=C(C(N)=O)C(=O)[C@@]2(O)C(O)=C3C(=O)c4c(O)cccc4[C@@](C)(O)[C@H]3C[C@@H]12 recorded_measurement=0.2636
smiles_str=CN(C)c1cc(CNCC(C)(C)C)c(O)c2c1C[C@H]1C[C@H]3[C@H](N(C)C)C(O)=C(C(N)=O)C(=O)[C@@]3(O)C(O)=C1C2=O recorded_measurement=0.1969
smiles_str=CN(C)c1cc(NC(=O)CNC(C)(C)C)c(O)c2c1C[C@H]1C[C@H]3[C@H](N(C)C)C(O)=C(C(N)=O)C(=O)[C@@]3(O)C(O)=C1C2=O recorded_measurement=0.1574

Incoming: Any idea what Michaelis-menten nonlinear fit, best-fit Kcat came out for CN(C)[C@@H]1C(O)=C(C(N)=O)C(=O)[C@@]2(O)C(O)=C3C(=O)c4c(O)c(NC(=O)CN5CCCC5)cc(F)c4C[C@H]3C[C@@H]12 on Tet(X6) (Proteus genomosp. 6, UniProt A0A6I7DAX3)?
Outgoing: 0.5027
